Molecular target: KRAS G12V Ba/F3 (Homo sapiens, UniProt P01116, G12V, cells depend on it)
Sequence (P01116 whole entry G12V): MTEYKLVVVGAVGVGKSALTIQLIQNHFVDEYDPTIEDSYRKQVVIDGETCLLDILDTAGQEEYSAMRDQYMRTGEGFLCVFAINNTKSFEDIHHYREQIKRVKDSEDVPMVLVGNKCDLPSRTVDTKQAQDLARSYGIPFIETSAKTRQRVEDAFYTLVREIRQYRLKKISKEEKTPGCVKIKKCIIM
Assay: Ba/F3 proliferation assay, KRAS G12V
Assay type: cell-based
Conditions: 72 h, AlamarBlue, read-out: KRAS G12V Ba/F3 IC50
RECORDED_METRIC: GI50 (nM)

Example entries and their recorded answers appear below.
C[C@H](Oc1cc(Nc2cnccn2)nc(-c2noc3c2CCC[C@@]32CCCc3sc(N)c(C#N)c32)n1)[C@@H]1CCCN1C [II-14] :: 7
C[C@H](Oc1cc(Oc2cccnc2)nc(-c2onc3c2CCC[C@@]32CCCc3sc(N)c(C#N)c32)n1)[C@@H]1CCCN1C [Example I-2] :: 2

P: C[C@H](Oc1cc(Oc2cncnc2)nc(-c2noc3c2CCC[C@@]32CCCc3sc(N)c(C#N)c32)n1)[C@@H]1CCCN1C [II-1]
Q: COc1c(OCC2(N(C)C)COC2)nc(-c2noc3c2CCC[C@@]32CCCc3sc(N)c(C#N)c32)nc1O[C@@H](C)[C@@H]1CCCN1C [II-25]
R: COCCOc1cc(O[C@@H](C)[C@@H]2CCCN2C)nc(-c2noc3c2CCC[C@@]32CCCc3sc(N)c(C#N)c32)n1 [II-5]
S: CO[C@@H]1C[C@@H]([C@H](C)Oc2cc(O[C@@H]3CNC3(C)C)nc(-c3noc4c3CCC[C@@]43CCCc4sc(N)c(C#N)c43)n2)N(C)C1 [II-30]
Hey, quick one: sort these by GI50, largest value first please. Return value: ordered labels per request.
S, Q, R, P

I: C[C@H](Oc1cc(O[C@H]2CN(C)C(C)(C)C2)nc(-c2noc3c2CCC[C@@]32CCCc3sc(N)c(C#N)c32)n1)[C@@H]1CCCN1C [II-19]
II: C[C@H](Oc1cc(O[C@H]2CNC(C)(C)C2)nc(-c2noc3c2CCC[C@@]32CCCc3sc(N)c(C#N)c32)n1)[C@@H]1CCCN1C (single isomer, unassigned) [II-8]
Higher GI50: I or II ? Bench note: the answer is the label of the chosen record.
II

P: C[C@H](Oc1cc(Oc2cnccn2)nc(-c2noc3c2CCC[C@@]32CCCc3sc(N)c(C#N)c32)n1)[C@@H]1CCCN1C [II-7]
Q: C[C@H](Oc1cc(OCC2(N(C)C)CC2)nc(-c2noc3c2CCC[C@@]32CCCc3sc(N)c(C#N)c32)n1)[C@@H]1CCCN1C [II-21]
R: C[C@H](Oc1cc(N(C)C)nc(-c2noc3c2CCC[C@@]32CCCc3sc(N)c(C#N)c32)n1)[C@@H]1CCCN1C [II-10]
Hey, quick one: sort these by GI50, largest value first please. Return value: ordered labels per request.
Q, R, P

1: C[C@H](Oc1cc(OCC2(N(C)C)COC2)nc(-c2noc3c2CCC[C@@]32CCCc3sc(N)c(C#N)c32)n1)[C@@H]1CCCN1C [II-22]
2: C[C@H](Oc1cc(OCC2(N(C)C)COC2)nc(-c2onc3c2CCC[C@@]32CCCc3sc(N)c(C#N)c32)n1)[C@@H]1CCCN1C [Example I-8]
Hello, I am sorting some records. Could you say if 1 or 2 has the smaller GI50 value? Bench note: the answer is the label of the chosen record.
1

----------
Experiment: Solubility measurement (DMSO solution precipitation method)
Assay type: physicochemical
Conditions: aqueous buffer, kinetic from dmso stock; McIlvaine buffer pH 6.8, 24 h; read-out: Solubility [μg/ml] pH 6.8
RECORDED_METRIC: solubility at 24 h

Example entries and their recorded answers appear below.
COc1c(OCC2(N(C)C)COC2)nc(-c2noc3c2CCC[C@@]32CCCc3sc(N)c(C#N)c32)nc1O[C@@H](C)[C@@H]1CCCN1C :: > 152 µg/mL
C[C@H](Oc1cc(Nc2nccs2)nc(-c2noc3c2CCC[C@@]32CCCc3sc(N)c(C#N)c32)n1)[C@@H]1CCCN1C :: < 1 µg/mL
C[C@H](Oc1cc(Nc2ccccn2)nc(-c2noc3c2CCC[C@@]32CCCc3sc(N)c(C#N)c32)n1)[C@@H]1CCCN1C :: < 1 µg/mL
COC[C@H](C)Nc1cc(O[C@@H](C)[C@@H]2CCCN2C)nc(-c2onc3c2CCC[C@@]32CCCc3sc(N)c(C#N)c32)n1 :: 109 µg/mL
C[C@H](Oc1cc(Oc2nccs2)nc(-c2noc3c2CCC[C@@]32CCCc3sc(N)c(C#N)c32)n1)[C@@H]1CCCN1C :: < 1 µg/mL

Dear colleague, I am looking for the recorded solubility at 24 h of the following molecule: C[C@H](Oc1cc(O[C@H]2CNC(C)(C)C2)nc(-c2noc3c2CCC[C@@]32CCCc3sc(N)c(C#N)c32)n1)[C@@H]1CCCN1C (single isomer, unassigned)
> 146 µg/mL

----------
Target: KRAS G12C Ba/F3 (Homo sapiens, UniProt P01116, G12C, cells depend on it)
Sequence (P01116 whole entry G12C): as the sequence (P01116 whole entry G12V) above, with V12C counted along it
Assay: Ba/F3 proliferation assay, KRAS G12C
Type: cell-based
Details: 72 h, AlamarBlue, read-out: KRAS G12C Ba/F3 IC50
RECORDED_METRIC: GI50 (nM)

COc1c(OCC2(N(C)C)COC2)nc(-c2noc3c2CCC[C@@]32CCCc3sc(N)c(C#N)c32)nc1O[C@@H](C)[C@@H]1CCCN1C [II-25] :: 85
C[C@H](Oc1cc(O[C@H]2CN(C)C(C)(C)C2)nc(-c2noc3c2CCC[C@@]32CCCc3sc(N)c(C#N)c32)n1)[C@@H]1CCCN1C [II-19] :: 218
C[C@H](Oc1cc(Oc2cnccn2)nc(-c2noc3c2CCC[C@@]32CCCc3sc(N)c(C#N)c32)n1)[C@@H]1CCCN1C [II-7] :: 4
C[C@H](Oc1cc(O[C@@H]2CNC[C@@H]2F)nc(-c2noc3c2CCC[C@@]32CCCc3sc(N)c(C#N)c32)n1)[C@@H]1CCCN1C [II-29] :: 79

1: C[C@H](Oc1cc(N[C@H]2CCOC2)nc(-c2onc3c2CCC[C@@]32CCCc3sc(N)c(C#N)c32)n1)[C@@H]1CCCN1C [Example I-4]
2: C[C@H](Oc1cc(O[C@H]2CCOC2)nc(-c2noc3c2CCC[C@@]32CCCc3sc(N)c(C#N)c32)n1)[C@@H]1CCCN1C [II-4]
Hello, I am sorting some records. Could you say if 1 or 2 has the smaller GI50 value? Bench note: the answer is the label of the chosen record.
2

----------
Molecular target: KRAS G12C Ba/F3 (Homo sapiens, UniProt P01116, G12C, cells depend on it)
Test: Ba/F3 proliferation assay, KRAS G12C
Assay type: cell-based
Conditions: 72 h, AlamarBlue, read-out: KRAS G12C Ba/F3 IC50
Protocol: Plasmids containing KRASG12 mutants(i.e. G12D, G12C, G12V) are obtained from GeneScript. To generate KRASG12-dependent Ba/F3 models, Ba/F3 cells are transduced with retroviruses containing vectors that harbor KRASG12 isoforms. […] Compounds are added using an Access Labcyte Workstation with a Labcyte Echo 550 or 555 accoustic dispenser. […] AlamarBlue™ (ThermoFisher), a viability stain, is added and fluorescence measured in the PerkinElmer Envision HTS Multilabel Reader. […]
RECORDED_METRIC: GI50 (nM)

C[C@H](Oc1cc(Oc2ccon2)nc(-c2noc3c2CCC[C@@]32CCCc3sc(N)c(C#N)c32)n1)[C@@H]1CCCN1C :: 17
C[C@H](Oc1cc(Nc2ncccn2)nc(-c2noc3c2CCC[C@@]32CCCc3sc(N)c(C#N)c32)n1)[C@@H]1CCCN1C :: 19
C[C@H](Oc1cc(N(C)C)nc(-c2noc3c2CCC[C@@]32CCCc3sc(N)c(C#N)c32)n1)[C@@H]1CCCN1C :: 61

1: C[C@H](Oc1cc(Oc2cncnc2)nc(-c2onc3c2CCC[C@@]32CCCc3sc(N)c(C#N)c32)n1)[C@@H]1CCCN1C
2: CO[C@@H]1C[C@@H]([C@H](C)Oc2cc(O[C@@H]3CNC3(C)C)nc(-c3noc4c3CCC[C@@]43CCCc4sc(N)c(C#N)c43)n2)N(C)C1
Higher GI50: 1 or 2 ? Bench note: the answer is the label of the chosen record.
2
(2: 219 nM, 1: 4 nM)

I: C[C@H](Oc1cc(Oc2cccnc2)nc(-c2onc3c2CCC[C@@]32CCCc3sc(N)c(C#N)c32)n1)[C@@H]1CCCN1C
II: C[C@H](Oc1cc(NCC2COC2)nc(-c2noc3c2CCC[C@@]32CCCc3sc(N)c(C#N)c32)n1)[C@@H]1CCCN1C
III: C[C@H](Oc1cc(N(C)CCN(C)C)nc(-c2noc3c2CCC[C@@]32CCCc3sc(N)c(C#N)c32)n1)[C@@H]1CCCN1C
IV: C[C@H](Oc1cc(Nc2ccccn2)nc(-c2onc3c2CCC[C@@]32CCCc3sc(N)c(C#N)c32)n1)[C@@H]1CCCN1C
Hey, quick one: sort these by GI50, largest value first please. Return value: ordered labels per request.
III, IV, II, I
